Data provenance is the supplement of paper PMC12645437.

Target: T1, CRBN, Q96SW2;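 note: pooled lentiviral library of zinc finger degron-EGFP fusions in mCherry-positive Jurkat cells, FACS-sorted after compound exposure, with degron abundance counted by next-generation sequencing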
T1 chain: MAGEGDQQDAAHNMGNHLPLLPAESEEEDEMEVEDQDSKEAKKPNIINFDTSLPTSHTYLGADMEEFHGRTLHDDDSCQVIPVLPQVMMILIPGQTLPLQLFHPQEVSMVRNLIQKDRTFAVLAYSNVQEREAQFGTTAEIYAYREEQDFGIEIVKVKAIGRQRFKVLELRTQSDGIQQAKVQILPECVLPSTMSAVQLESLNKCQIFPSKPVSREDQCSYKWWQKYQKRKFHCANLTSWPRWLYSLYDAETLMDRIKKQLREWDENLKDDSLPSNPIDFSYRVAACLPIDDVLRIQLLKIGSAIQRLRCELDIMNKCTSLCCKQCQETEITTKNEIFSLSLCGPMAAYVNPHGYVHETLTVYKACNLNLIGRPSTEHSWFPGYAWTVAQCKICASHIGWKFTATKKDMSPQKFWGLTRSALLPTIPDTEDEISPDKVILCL
Assay: log2 fold change of degron read counts, EGFP-low vs EGFP+ sorted cells (limma voom), compound-induced degradation; higher = more compound-induced degradation of the degron-EGFP fusion; degrons are variants of IKZF1/3 zinc finger 2; compound dose not given here
Settings: Jurkat; 18 h; compound: compound 22 (5-morpholino-thalidomide)
The full ranking holds about 8,300 sequences; the median of “log2 fold change of degron read counts, EGFP-low vs EGFP+ sorted cells (limma voom), compound-induced degradation” is about -1.1, and the highest 2% start at about 3.2. Many of the other results were omitted from the sample, so the highest values are more common in it than they were.
The entries below come with measured log2 fold change of degron read counts values attached.
quantity measured: log2 fold change of degron read counts

# residue codes, obs value
rows = [
    ("FNCNICGACFTQKGNLLRHIKL [46F_47N_49N_50I_52G_53A_54C_55F_67L_, Q9UKT9]", -0.00319),
    ("FSCNVCGAPFTQKGNLLRHIKL [46F_47S_49N_50V_52G_53A_54P_55F_67L_, Q9UKT9]", 0.453),
    ("FCCPVCGAMFTQKGNLLRHIKL [46F_47C_49P_50V_52G_53A_54M_55F_67L_, Q9UKT9]", 0.957),
    ("FTCNQCGAFFTQKGNLLRHIKL [46F_47T_49N_50Q_52G_53A_54F_55F_67L_, Q9UKT9]", -2.47),
    ("FLCPICGHCFTQKGNLLRHIKL [46F_47L_49P_50I_52G_53H_54C_55F_67L_, Q9UKT9]", -2.17),
    ("FGCPQCGAFFTQKGNLLRHIKL [46F_47G_49P_50Q_52G_53A_54F_55F_67L_, Q9UKT9]", -1.28),
    ("FTCNQCGANFTQKGNLLRHIKL [46F_47T_49N_50Q_52G_53A_54N_55F_67L_, Q9UKT9]", -1.9),
]
